Tested on: HCC-44
EXPERIMENTAL DETAILS: relative viability (nuclei count vs DMSO), 5 days (fraction); higher = more cells survive
RUN CONDITIONS: first compound 0.005 µM
Here, each record is paired with measured relative viability data.
// return a plain number; no unit text

COc1cc2nccc(Oc3ccc(NC(=O)Nc4cc(C)on4)c(Cl)c3)c2cc1OC [Tivozanib] + CS(=O)(=O)CCNCc1ccc(-c2ccc3ncnc(Nc4ccc(OCc5cccc(F)c5)c(Cl)c4)c3c2)o1 [Lapatinib] (partner 2 µM) ... 0.95

Alright, here's another molecule for you.
Fill in the blank: the reported relative viability of COc1cc2nccc(Oc3ccc(NC(=O)Nc4cc(C)on4)c(Cl)c3)c2cc1OC [Tivozanib] + CCNC(=O)c1noc(-c2cc(C(C)C)c(O)cc2O)c1-c1ccc(CN2CCOCC2)cc1 [Luminespib] (partner 0.01 µM) is ____.
1.01

* * *

Parameter: relative viability. Scope: all listed entries.
System: NCI-H2009
EXPERIMENTAL DETAILS: relative viability (nuclei count vs DMSO), 5 days (fraction); higher = more cells survive
RUN CONDITIONS: first compound 0.08 µM

Which measured relative viability value corresponds to Cc1cnc(-c2cnc(NCCNc3ccc(C#N)cn3)nc2-c2ccc(Cl)cc2Cl)[nH]1 + O=C(c1cc(Cc2n[nH]c(=O)c3ccccc23)ccc1F)N1CCN(C(=O)C2CC2)CC1 [Olaparib] (partner 8 µM) ?
0.746

O=c1[nH]c2ccccc2n1C1CCN(CCCC(c2ccc(F)cc2)c2ccc(F)cc2)CC1 [Pimozide] + COc1cc2c(Oc3ccc(NC(=O)C4(C(=O)Nc5ccc(F)cc5)CC4)cc3F)ccnc2cc1OCCCN1CCOCC1 [Foretinib] (partner 0.25 µM) ?
1.24

* * *

System: NCI-H2085
EXPERIMENTAL DETAILS: relative viability (nuclei count vs DMSO), 5 days (fraction); higher = more cells survive
RUN CONDITIONS: first compound 2.53 µM
relative viability listing for selected compounds.
Please respond with just the number, no unit label.

Example entries and their recorded answers appear below.
O=c1[nH]c2ccccc2n1C1CCN(CCCC(c2ccc(F)cc2)c2ccc(F)cc2)CC1 [Pimozide] + NC(=O)Nc1cc(-c2cccc(F)c2)sc1C(=O)N[C@H]1CCCNC1 [AZD7762] (partner 0.2 µM) ... 1.07
Cc1cnc(-c2cnc(NCCNc3ccc(C#N)cn3)nc2-c2ccc(Cl)cc2Cl)[nH]1 + Nc1nc2[nH]cc(CCc3ccc(C(=O)N[C@@H](CCC(=O)O)C(=O)O)cc3)c2c(=O)[nH]1 [Pemetrexed] (partner 0.2 µM) ... 0.955
Cc1cnc(-c2cnc(NCCNc3ccc(C#N)cn3)nc2-c2ccc(Cl)cc2Cl)[nH]1 + C[C@]1(O)C[C@@H](c2nc(-c3ccc4ccc(-c5ccccc5)nc4c3)c3c(N)nccn32)C1 [Linsitinib] (partner 1 µM) ... 0.882
Cc1cnc(-c2cnc(NCCNc3ccc(C#N)cn3)nc2-c2ccc(Cl)cc2Cl)[nH]1 + Cc1cc(Nc2cc(N3CCN(C)CC3)nc(Sc3ccc(NC(=O)C4CC4)cc3)n2)n[nH]1 [Tozasertib] (partner 0.1 µM) ... 0.469

What value of relative viability has been reported for the following compound? O=c1[nH]c2ccccc2n1C1CCN(CCCC(c2ccc(F)cc2)c2ccc(F)cc2)CC1 [Pimozide] + Cc1nc(NC(=O)N2CCC[C@H]2C(N)=O)sc1-c1ccnc(C(C)(C)C(F)(F)F)c1 [Alpelisib] (partner 2 µM)
0.981

Quick one: O=c1[nH]c2ccccc2n1C1CCN(CCCC(c2ccc(F)cc2)c2ccc(F)cc2)CC1 [Pimozide] + Nc1nc2[nH]cc(CCc3ccc(C(=O)N[C@@H](CCC(=O)O)C(=O)O)cc3)c2c(=O)[nH]1 [Pemetrexed] (partner 0.2 µM)
0.938

Moving on to the next compound: O=c1[nH]c2ccccc2n1C1CCN(CCCC(c2ccc(F)cc2)c2ccc(F)cc2)CC1 [Pimozide] + CS(=O)(=O)N1CCN(Cc2cc3nc(-c4cccc5[nH]ncc45)nc(N4CCOCC4)c3s2)CC1 [Pictilisib] (partner 1 µM)
0.486

Same read-out for O=c1[nH]c2ccccc2n1C1CCN(CCCC(c2ccc(F)cc2)c2ccc(F)cc2)CC1 [Pimozide] + O=C(c1cc(Cc2n[nH]c(=O)c3ccccc23)ccc1F)N1CCN(C(=O)C2CC2)CC1 [Olaparib] (partner 8 µM) ?
0.783

Now this one: Cc1cnc(-c2cnc(NCCNc3ccc(C#N)cn3)nc2-c2ccc(Cl)cc2Cl)[nH]1 + CCNC(=O)c1noc(-c2cc(C(C)C)c(O)cc2O)c1-c1ccc(CN2CCOCC2)cc1 [Luminespib] (partner 0.01 µM)
0.339

Now consider Cc1cnc(-c2cnc(NCCNc3ccc(C#N)cn3)nc2-c2ccc(Cl)cc2Cl)[nH]1 + NC(=O)Nc1cc(-c2cccc(F)c2)sc1C(=O)N[C@H]1CCCNC1 [AZD7762] (partner 0.2 µM) .
1.05

* * *

Reported relative viability values for a set of molecules
System: NCI-H1299
EXPERIMENTAL DETAILS: relative viability (nuclei count vs DMSO), 5 days (fraction); higher = more cells survive
RUN CONDITIONS: first compound 0.006325 µM
Just the number.

CC(=O)O[C@@]12CO[C@@H]1C[C@H](O)[C@@]1(C)C(=O)[C@H](O)C3=C(C)[C@@H](OC(=O)[C@H](O)[C@@H](NC(=O)OC(C)(C)C)c4ccccc4)C[C@@](O)([C@@H](OC(=O)c4ccccc4)[C@H]21)C3(C)C [Docetaxel] + CC1(C)CCC(c2ccc(Cl)cc2)=C(CN2CCN(c3ccc(C(=O)NS(=O)(=O)c4ccc(N[C@H](CCN5CCOCC5)CSc5ccccc5)c(S(=O)(=O)C(F)(F)F)c4)cc3)CC2)C1 [Navitoclax] (partner 0.5 µM) ... 0.526
CC(=O)O[C@@]12CO[C@@H]1C[C@H](O)[C@@]1(C)C(=O)[C@H](O)C3=C(C)[C@@H](OC(=O)[C@H](O)[C@@H](NC(=O)OC(C)(C)C)c4ccccc4)C[C@@](O)([C@@H](OC(=O)c4ccccc4)[C@H]21)C3(C)C [Docetaxel] + C[C@]1(O)C[C@@H](c2nc(-c3ccc4ccc(-c5ccccc5)nc4c3)c3c(N)nccn32)C1 [Linsitinib] (partner 1 µM) ... 0.432
CC(=O)O[C@@]12CO[C@@H]1C[C@H](O)[C@@]1(C)C(=O)[C@H](O)C3=C(C)[C@@H](OC(=O)[C@H](O)[C@@H](NC(=O)OC(C)(C)C)c4ccccc4)C[C@@](O)([C@@H](OC(=O)c4ccccc4)[C@H]21)C3(C)C [Docetaxel] + CS(=O)(=O)CCNCc1ccc(-c2ccc3ncnc(Nc4ccc(OCc5cccc(F)c5)c(Cl)c4)c3c2)o1 [Lapatinib] (partner 2 µM) ... 0.467

If you can, please state the reported relative viability value of CC(=O)O[C@@]12CO[C@@H]1C[C@H](O)[C@@]1(C)C(=O)[C@H](O)C3=C(C)[C@@H](OC(=O)[C@H](O)[C@@H](NC(=O)OC(C)(C)C)c4ccccc4)C[C@@](O)([C@@H](OC(=O)c4ccccc4)[C@H]21)C3(C)C [Docetaxel] + C[C@@H](Oc1cc(-c2cnn(C3CCNCC3)c2)cnc1N)c1c(Cl)ccc(F)c1Cl [Crizotinib] (partner 1 µM) .
0.392

* * *

# Lookup of reported relative viability keyed by entry
Test system: BEN
EXPERIMENTAL DETAILS: relative viability (nuclei count vs DMSO), 5 days (fraction); higher = more cells survive
RUN CONDITIONS: first compound 0.05 µM
I only need the number, thanks.

Some solved entries appear below for comparison.
Nc1ccn([C@@H]2O[C@H](CO)[C@@H](O)[C@@H]2O)c(=O)n1 [Cytarabine] + O=C(CCCCCCC(=O)Nc1ccccc1)NO [Vorinostat] (partner 1 µM) ... 0.447
COc1cc2nccc(Oc3ccc(NC(=O)Nc4cc(C)on4)c(Cl)c3)c2cc1OC [Tivozanib] + Cc1nc(Nc2ncc(C(=O)Nc3c(C)cccc3Cl)s2)cc(N2CCN(CCO)CC2)n1 [Dasatinib] (partner 0.075 µM) ... 0.369
Nc1ccn([C@@H]2O[C@H](CO)[C@@H](O)[C@@H]2O)c(=O)n1 [Cytarabine] + O=C(c1cc(Cc2n[nH]c(=O)c3ccccc23)ccc1F)N1CCN(C(=O)C2CC2)CC1 [Olaparib] (partner 8 µM) ... 0.637
Nc1ccn([C@@H]2O[C@H](CO)[C@@H](O)[C@@H]2O)c(=O)n1 [Cytarabine] + CC(=O)c1c(C)c2cnc(Nc3ccc(N4CCNCC4)cn3)nc2n(C2CCCC2)c1=O [Palbociclib] (partner 0.5 µM) ... 0.458
COc1cc2nccc(Oc3ccc(NC(=O)Nc4cc(C)on4)c(Cl)c3)c2cc1OC [Tivozanib] + COc1cc2c(Oc3ccc(NC(=O)C4(C(=O)Nc5ccc(F)cc5)CC4)cc3F)ccnc2cc1OCCCN1CCOCC1 [Foretinib] (partner 0.25 µM) ... 0.731
Nc1ccn([C@@H]2O[C@H](CO)[C@@H](O)[C@@H]2O)c(=O)n1 [Cytarabine] + CC(=O)Nc1cccc(-n2c(=O)n(C3CC3)c(=O)c3c(Nc4ccc(I)cc4F)n(C)c(=O)c(C)c32)c1 [Trametinib] (partner 0.02 µM) ... 0.781

Query: relative viability; subject: Nc1ccn([C@@H]2O[C@H](CO)[C@@H](O)[C@@H]2O)c(=O)n1 [Cytarabine] + N=C(N)NC(=N)NCCc1ccccc1 [Phenformin] (partner 250 µM)
0.244

Same read-out for Nc1ccn([C@@H]2O[C@H](CO)[C@@H](O)[C@@H]2O)c(=O)n1 [Cytarabine] + C[C@]1(O)C[C@@H](c2nc(-c3ccc4ccc(-c5ccccc5)nc4c3)c3c(N)nccn32)C1 [Linsitinib] (partner 1 µM) ?
0.557

Input COc1cc2nccc(Oc3ccc(NC(=O)Nc4cc(C)on4)c(Cl)c3)c2cc1OC [Tivozanib] + Nc1ncn([C@H]2C[C@H](O)[C@@H](CO)O2)c(=O)n1 [Decitabine] (partner 2 µM)
0.761
